tested on: MCF7 cell line; test: CellTiter-Glo 2.0 cell viability, 7x7 combination dose response matrix, synergy scoring; assay type: cell-based; settings: MCF7; combined with M2698 41-10000 nM; first compound 0.41-100 nM
Please respond with reported Mean Bliss synergy score for every item in the list.
Would you mind answering with just the numeric figure?

# input Mean Bliss synergy score lookup needed for O=C1CCC(N2Cc3ccc(COC(=O)Nc4cccc(OC(F)(F)F)c4)cc3C2=O)C(=O)N1 (stereo not shown) [Compound 1-5] , thanks.
# output 5.35

# input Another compound to check: O=C1CCC(N2Cc3ccc(COC(=O)Nc4ccc(F)c(OC(F)F)c4)cc3C2=O)C(=O)N1 (stereo not shown) [Compound 1-3]
# output 25.34

# input Another compound to check: Cc1cc(C)cc(NC(=O)OCc2ccc3c(c2)C(=O)N(C2CCC(=O)NC2=O)C3)c1 (stereo not shown) [Compound 1-4]
# output 14.55

# input Another compound to check: O=C1CCC(N2Cc3ccc(COC(=O)Nc4ccc(F)c(OC(F)(F)F)c4)cc3C2=O)C(=O)N1 (stereo not shown) [Compound 1-2]
# output 19.15
